- experimentalSystem: fACC2 (UniProt Q00955)
- Sequence (Q00955 whole entry): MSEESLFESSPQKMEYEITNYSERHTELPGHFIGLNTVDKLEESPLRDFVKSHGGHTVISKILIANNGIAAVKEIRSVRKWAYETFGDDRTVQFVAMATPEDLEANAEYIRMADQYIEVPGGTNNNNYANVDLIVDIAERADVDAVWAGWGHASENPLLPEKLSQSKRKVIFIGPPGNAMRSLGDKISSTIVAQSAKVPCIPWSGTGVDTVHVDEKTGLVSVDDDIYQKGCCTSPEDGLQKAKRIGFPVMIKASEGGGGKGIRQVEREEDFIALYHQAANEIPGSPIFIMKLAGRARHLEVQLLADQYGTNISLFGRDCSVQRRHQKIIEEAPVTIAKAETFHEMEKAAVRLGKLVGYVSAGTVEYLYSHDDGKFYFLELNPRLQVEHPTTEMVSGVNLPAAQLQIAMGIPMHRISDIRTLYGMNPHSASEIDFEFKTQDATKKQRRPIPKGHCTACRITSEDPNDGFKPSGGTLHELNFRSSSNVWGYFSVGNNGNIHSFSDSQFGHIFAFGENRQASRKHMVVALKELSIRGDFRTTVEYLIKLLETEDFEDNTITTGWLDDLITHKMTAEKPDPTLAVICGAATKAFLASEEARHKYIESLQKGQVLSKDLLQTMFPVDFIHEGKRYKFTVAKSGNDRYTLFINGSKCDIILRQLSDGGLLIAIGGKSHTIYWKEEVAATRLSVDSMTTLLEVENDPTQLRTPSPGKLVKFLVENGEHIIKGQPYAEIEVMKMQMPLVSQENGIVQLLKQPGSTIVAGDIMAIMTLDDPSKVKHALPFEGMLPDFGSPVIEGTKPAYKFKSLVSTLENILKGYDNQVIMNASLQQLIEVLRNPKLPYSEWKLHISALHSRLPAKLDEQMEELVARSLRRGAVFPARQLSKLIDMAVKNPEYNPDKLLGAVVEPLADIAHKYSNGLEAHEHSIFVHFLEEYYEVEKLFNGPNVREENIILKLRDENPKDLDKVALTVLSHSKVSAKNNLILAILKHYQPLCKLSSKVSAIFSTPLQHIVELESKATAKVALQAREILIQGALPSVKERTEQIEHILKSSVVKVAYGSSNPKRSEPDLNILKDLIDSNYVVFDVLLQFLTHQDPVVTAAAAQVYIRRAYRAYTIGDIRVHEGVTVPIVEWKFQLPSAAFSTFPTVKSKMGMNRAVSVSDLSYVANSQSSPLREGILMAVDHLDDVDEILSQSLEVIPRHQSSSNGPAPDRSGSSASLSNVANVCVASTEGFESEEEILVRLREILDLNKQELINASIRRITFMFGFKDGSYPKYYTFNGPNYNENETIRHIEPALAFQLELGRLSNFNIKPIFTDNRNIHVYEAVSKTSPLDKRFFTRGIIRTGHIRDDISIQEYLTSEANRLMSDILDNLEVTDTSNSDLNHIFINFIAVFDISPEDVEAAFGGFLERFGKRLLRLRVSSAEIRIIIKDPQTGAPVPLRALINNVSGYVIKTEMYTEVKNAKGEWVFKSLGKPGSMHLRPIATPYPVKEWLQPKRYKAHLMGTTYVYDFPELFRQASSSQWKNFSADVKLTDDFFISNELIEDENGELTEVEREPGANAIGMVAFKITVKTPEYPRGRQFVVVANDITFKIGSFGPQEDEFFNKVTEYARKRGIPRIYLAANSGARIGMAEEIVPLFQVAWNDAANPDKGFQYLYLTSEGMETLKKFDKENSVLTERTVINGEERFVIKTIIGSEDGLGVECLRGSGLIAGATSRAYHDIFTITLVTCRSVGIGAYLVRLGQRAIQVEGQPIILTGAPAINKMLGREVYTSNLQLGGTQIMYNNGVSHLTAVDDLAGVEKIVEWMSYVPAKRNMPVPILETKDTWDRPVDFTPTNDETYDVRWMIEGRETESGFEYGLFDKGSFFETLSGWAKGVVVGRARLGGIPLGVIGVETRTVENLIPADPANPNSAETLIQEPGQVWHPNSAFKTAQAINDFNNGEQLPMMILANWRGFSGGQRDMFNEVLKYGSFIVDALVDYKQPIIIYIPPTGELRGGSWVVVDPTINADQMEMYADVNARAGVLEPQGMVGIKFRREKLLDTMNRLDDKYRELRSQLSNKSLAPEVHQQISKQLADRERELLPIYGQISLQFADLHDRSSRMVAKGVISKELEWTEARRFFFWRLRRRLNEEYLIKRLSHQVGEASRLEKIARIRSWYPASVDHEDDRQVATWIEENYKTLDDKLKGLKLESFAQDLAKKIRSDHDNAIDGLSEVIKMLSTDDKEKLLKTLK
- assayInfo: In vitro ACC2 inhibition assay (ADP-Glo), fungal ACC2
- Type: biochemical
- measurementParameters: Table 2a
- Excerpt: An exemplary procedure for the in vitro ACC inhibition assay, which can be used to determine the inhibitory action of compounds of the invention toward either human (hACC2) or fungal (fACC2) ACC2, follows. […] The ADP-Glo™ Kinase Assay is a luminescent ADP detection assay to measure enzymatic activity by quantifying the amount of ADP produced during an enzyme reaction. […] Luminescence can be correlated to ADP concentrations by using an ATP-to-ADP conversion curve. […]
Here, each record is paired with measured IC50 data.

If you can, please state the reported IC50 value of CCOC(=O)c1sc2c(c1C)c(=O)n(C(C)(C)C(=O)NC(C)C)c(=O)n2C[C@H](OCCOC)c1cc(F)ccc1OC [Compound I-11] .
0.6 to 3 nM

If you can, please state the reported IC50 value of CCOC(=O)c1sc2c(c1C)c(=O)n(C(C)(C)C(N)=O)c(=O)n2C[C@H](OCCOC)c1cc(F)ccc1OC [Compound I-10] .
3 to 10 nM

If you can, please state the reported IC50 value of CCOC(=O)c1sc2c(c1C)c(=O)n(C(C)(C)C(=O)NC(C)C)c(=O)n2C[C@H](OCCC#N)c1cc(F)ccc1OC [Compound I-15] .
0.6 to 3 nM

If you can, please state the reported IC50 value of CCOC(=O)c1sc2c(c1C)c(=O)n(C(C)(C)C(=O)N1CCCCC1)c(=O)n2C[C@H](OC(C)C)c1ccccc1OC [Compound I-6] .
0.6 to 3 nM

If you can, please state the reported IC50 value of CCOC(=O)c1sc2c(c1C)c(=O)n(C(C)(C)C(=O)N1CCCCC1)c(=O)n2C[C@H](OC1CCOCC1)c1ccccc1OC [Compound I-2] .
0.6 to 3 nM

If you can, please state the reported IC50 value of CCOC(=O)c1sc2c(c1C)c(=O)n(C(C)(C)C(=O)N1CCCC1)c(=O)n2C[C@H](OCCC#N)c1cc(F)ccc1OC [Compound I-16] .
0.6 to 3 nM

====

Here, each record is paired with measured IC50 data.
- experimentalSystem: hACC2 (Homo sapiens)
- Sequence (O00763 whole entry): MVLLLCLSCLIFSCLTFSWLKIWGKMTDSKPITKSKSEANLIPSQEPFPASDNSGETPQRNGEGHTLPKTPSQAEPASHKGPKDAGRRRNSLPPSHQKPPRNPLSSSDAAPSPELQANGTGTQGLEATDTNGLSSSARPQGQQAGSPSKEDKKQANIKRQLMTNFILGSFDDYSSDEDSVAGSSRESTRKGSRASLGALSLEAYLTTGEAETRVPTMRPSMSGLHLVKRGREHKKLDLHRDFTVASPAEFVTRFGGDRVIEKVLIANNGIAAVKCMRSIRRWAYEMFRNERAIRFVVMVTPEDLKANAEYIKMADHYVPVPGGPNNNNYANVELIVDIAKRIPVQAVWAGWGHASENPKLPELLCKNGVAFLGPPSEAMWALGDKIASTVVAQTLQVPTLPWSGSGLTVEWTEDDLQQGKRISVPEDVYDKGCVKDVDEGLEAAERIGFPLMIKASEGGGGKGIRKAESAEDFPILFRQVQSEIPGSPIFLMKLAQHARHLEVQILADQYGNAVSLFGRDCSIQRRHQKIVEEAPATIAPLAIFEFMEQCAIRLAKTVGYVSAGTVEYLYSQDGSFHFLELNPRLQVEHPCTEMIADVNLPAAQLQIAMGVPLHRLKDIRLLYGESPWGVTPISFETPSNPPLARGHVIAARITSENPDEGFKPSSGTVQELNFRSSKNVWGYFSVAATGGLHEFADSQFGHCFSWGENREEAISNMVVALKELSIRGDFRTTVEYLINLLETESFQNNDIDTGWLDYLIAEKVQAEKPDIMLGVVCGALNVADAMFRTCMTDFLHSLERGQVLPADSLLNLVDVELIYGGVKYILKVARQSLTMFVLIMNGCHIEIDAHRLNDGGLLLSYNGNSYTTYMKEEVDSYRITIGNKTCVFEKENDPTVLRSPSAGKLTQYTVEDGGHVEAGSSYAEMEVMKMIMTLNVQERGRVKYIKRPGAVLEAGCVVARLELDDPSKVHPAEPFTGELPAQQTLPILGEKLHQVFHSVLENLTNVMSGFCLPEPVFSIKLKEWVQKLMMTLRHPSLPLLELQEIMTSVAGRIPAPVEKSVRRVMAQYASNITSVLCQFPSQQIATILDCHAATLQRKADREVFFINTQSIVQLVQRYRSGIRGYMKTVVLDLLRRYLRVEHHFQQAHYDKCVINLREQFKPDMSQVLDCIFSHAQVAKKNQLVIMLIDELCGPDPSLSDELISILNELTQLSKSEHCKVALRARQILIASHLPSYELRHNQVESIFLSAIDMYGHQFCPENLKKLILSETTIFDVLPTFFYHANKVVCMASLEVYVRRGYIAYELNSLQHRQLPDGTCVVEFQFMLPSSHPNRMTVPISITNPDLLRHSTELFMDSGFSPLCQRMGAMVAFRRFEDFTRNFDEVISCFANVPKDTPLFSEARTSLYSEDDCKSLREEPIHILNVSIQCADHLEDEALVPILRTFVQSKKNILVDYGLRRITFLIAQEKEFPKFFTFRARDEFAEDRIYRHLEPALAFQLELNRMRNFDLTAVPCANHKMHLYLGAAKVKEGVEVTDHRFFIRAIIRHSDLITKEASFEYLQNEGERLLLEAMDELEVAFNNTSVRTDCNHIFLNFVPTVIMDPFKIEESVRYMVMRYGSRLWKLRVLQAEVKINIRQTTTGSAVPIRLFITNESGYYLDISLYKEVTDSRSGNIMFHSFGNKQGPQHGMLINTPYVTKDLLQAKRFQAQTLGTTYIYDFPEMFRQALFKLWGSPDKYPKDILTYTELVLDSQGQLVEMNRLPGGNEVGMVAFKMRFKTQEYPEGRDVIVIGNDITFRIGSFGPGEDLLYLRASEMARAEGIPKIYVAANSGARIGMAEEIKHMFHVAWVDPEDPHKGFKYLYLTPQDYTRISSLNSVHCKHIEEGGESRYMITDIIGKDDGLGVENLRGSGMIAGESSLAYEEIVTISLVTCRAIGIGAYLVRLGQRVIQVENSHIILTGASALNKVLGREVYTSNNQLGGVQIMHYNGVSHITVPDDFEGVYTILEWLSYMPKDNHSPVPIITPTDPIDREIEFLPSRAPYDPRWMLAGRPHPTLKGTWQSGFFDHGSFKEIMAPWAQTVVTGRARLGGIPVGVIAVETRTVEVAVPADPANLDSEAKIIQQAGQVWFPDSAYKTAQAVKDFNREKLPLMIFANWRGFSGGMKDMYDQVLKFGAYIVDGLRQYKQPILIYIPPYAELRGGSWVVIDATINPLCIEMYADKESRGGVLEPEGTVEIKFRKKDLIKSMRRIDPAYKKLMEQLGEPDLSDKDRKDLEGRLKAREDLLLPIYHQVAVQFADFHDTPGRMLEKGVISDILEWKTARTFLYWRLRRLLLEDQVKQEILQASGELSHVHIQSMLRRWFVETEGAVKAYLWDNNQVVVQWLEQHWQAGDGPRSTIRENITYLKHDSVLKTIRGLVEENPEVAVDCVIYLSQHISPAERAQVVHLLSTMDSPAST
- assayInfo: In vitro ACC2 inhibition assay (ADP-Glo), human ACC2
- Format: biochemical
- measurementParameters: Table 2b (additional results)

* CCOC(=O)c1sc2c(c1C)c(=O)n(C(C)(C)C(=O)NC(C)C)c(=O)n2C[C@H](OC(C)C)c1ccccc1OC | 10 to 40 nM
* CCOC(=O)c1sc2c(c1C)c(=O)n([C@@H](C)C(=O)NC(C)C)c(=O)n2C[C@H](OCCC#N)c1cc(F)ccc1OC | 3 to 10 nM

If you can, please state the reported IC50 value of CCOC(=O)c1sc2c(c1C)c(=O)n(C(C)(C)C(=O)N1CCCC1)c(=O)n2C[C@H](OCCO)c1cc(F)ccc1OC .
3 to 10 nM

If you can, please state the reported IC50 value of CCOC(=O)c1sc2c(c1C)c(=O)n(C(C)(C)C(=O)NC(C)C)c(=O)n2C[C@H](OCC(C)(C)C#N)c1ccccc1OC .
10 to 40 nM

If you can, please state the reported IC50 value of CCOC(=O)c1sc2c(c1C)c(=O)n(C(C)(C)C(=O)NC(C)C)c(=O)n2C[C@H](OCC(C)(C)C#N)c1cc(F)ccc1OC .
10 to 40 nM

If you can, please state the reported IC50 value of CCOC(=O)c1sc2c(c1C)c(=O)n(C(C)(C)C(=O)NC(C)C)c(=O)n2C[C@H](OCCOC)c1cc(F)ccc1OC .
10 to 40 nM

If you can, please state the reported IC50 value of CCOC(=O)c1sc2c(c1C)c(=O)n([C@H](C)C(=O)N(C)C(C)C)c(=O)n2C[C@H](OCCO)c1cc(F)ccc1OC .
10 to 40 nM

If you can, please state the reported IC50 value of CCOC(=O)c1sc2c(c1C)c(=O)n(C(C)(C)C(=O)NC(C)C)c(=O)n2CCc1cc(F)ccc1OC .
10 to 40 nM

If you can, please state the reported IC50 value of CCOC(=O)c1sc2c(c1C)c(=O)n(C(C)(C)C(=O)NC(C)C)c(=O)n2C[C@H](O)c1cc(F)ccc1OC .
3 to 10 nM

If you can, please state the reported IC50 value of CCOC(=O)c1sc2c(c1C)c(=O)n(C(C)(C)C(=O)NC(C)C)c(=O)n2C[C@H](OC1CCOCC1)c1ccccc1OC .
10 to 40 nM

If you can, please state the reported IC50 value of CCNC(=O)C(C)(C)n1c(=O)c2c(C)c(C(=O)OCC)sc2n(C[C@H](O)c2cc(F)ccc2OC)c1=O .
10 to 40 nM

If you can, please state the reported IC50 value of CCOC(=O)c1sc2c(c1C)c(=O)n([C@@H](C)C(N)=O)c(=O)n2C[C@H](OCCC#N)c1cc(F)ccc1OC .
3 to 10 nM

If you can, please state the reported IC50 value of CCOC(=O)c1sc2c(c1C)c(=O)n([C@H](C)C(=O)N(C)C(C)C)c(=O)n2C[C@H](OCCC#N)c1cc(F)ccc1OC .
0.3 to 3 nM

If you can, please state the reported IC50 value of CCOC(=O)c1sc2c(c1C)c(=O)n(C(C)(C)C(=O)NC(C)C)c(=O)n2C[C@H](OCC#N)c1cc(F)ccc1OC .
3 to 10 nM

If you can, please state the reported IC50 value of CCOC(=O)c1sc2c(c1C)c(=O)n(C(C)(C)C(=O)N1CCCCC1)c(=O)n2C[C@H](OC1CCOCC1)c1ccccc1OC .
10 to 40 nM

If you can, please state the reported IC50 value of CCOC(=O)c1sc2c(c1C)c(=O)n(C(C)(C)C(N)=O)c(=O)n2C[C@H](OCCOC)c1cc(F)ccc1OC .
≥ 40 nM

If you can, please state the reported IC50 value of CCNC(=O)C(C)(C)n1c(=O)c2c(C)c(C(=O)OCC)sc2n(C[C@H](OC2CCOCC2)c2ccccc2OC)c1=O .
3 to 10 nM

If you can, please state the reported IC50 value of CCOC(=O)c1sc2c(c1C)c(=O)n([C@@H](C)C(=O)N1CCCC1)c(=O)n2C[C@H](OCCC#N)c1cc(F)ccc1OC .
3 to 10 nM

If you can, please state the reported IC50 value of CCNC(=O)C(C)(C)n1c(=O)c2c(C)c(C(=O)OCC)sc2n(C[C@H](OCCC#N)c2ccccc2OC)c1=O .
3 to 10 nM

If you can, please state the reported IC50 value of CCOC(=O)c1sc2c(c1C)c(=O)n(C(C)(C)C(=O)NC(C)C)c(=O)n2C[C@H](OCCS(C)(=O)=O)c1cc(F)ccc1OC .
10 to 40 nM

If you can, please state the reported IC50 value of CCNC(=O)[C@H](C)n1c(=O)c2c(C)c(C(=O)OCC)sc2n(C[C@H](OCCC#N)c2cc(F)ccc2OC)c1=O .
3 to 10 nM
